// provenance: patent US20250090677A1

Biological target: T1, recombinant protein CDH6 (UniProt P55285 54-615)
T1 construct: also called CDH6 recombinant protein; CDH6 antigen
T1 sequence (looked up): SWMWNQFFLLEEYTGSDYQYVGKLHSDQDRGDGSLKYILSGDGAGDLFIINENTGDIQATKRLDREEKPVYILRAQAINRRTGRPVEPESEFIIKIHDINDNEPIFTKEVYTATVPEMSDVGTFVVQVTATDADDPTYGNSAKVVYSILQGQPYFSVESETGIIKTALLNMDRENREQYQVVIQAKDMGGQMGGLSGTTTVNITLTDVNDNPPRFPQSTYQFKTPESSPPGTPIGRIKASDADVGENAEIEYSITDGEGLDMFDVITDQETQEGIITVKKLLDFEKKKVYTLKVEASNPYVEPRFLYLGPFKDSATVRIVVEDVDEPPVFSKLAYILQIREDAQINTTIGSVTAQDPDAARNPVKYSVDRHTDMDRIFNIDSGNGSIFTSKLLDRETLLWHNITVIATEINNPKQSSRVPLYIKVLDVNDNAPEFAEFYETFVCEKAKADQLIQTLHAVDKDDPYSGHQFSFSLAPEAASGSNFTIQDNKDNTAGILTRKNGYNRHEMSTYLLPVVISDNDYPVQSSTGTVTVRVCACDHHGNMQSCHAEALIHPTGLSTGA
Experiment: ELISA, CDH6 coated at 1 ug/mL
Entries and their sensitivity

stdin: Could you tell me which sensitivity is on file for CL069066 antibody (antibody, V domains shown, Mouse monoclonal antibody from hybridoma, purified from ascites with Protein A/G; also called #4; No. 4) VH: EVKLLESGGGLVQPGGSLKLSCAASGFDFSRYWMTWVRQAPGKGLEWIGEINPDSSTINYTPSLKDKFIISRDNAKNTLYLQMNKVTSEDTALYYCTRRPHYYGYFDSWGQGTTLTVSS VL: DIVLTQSPASLAVSLGQRATISCRASESVEYYGTTLMQWYQQKPGQPPQLLIYAGSNVESGVPARFSGSGSGTEFSLNIHPVEEDDIGMYFCQQSRKVPWTFGGGTKLEIK ?
stdout: ≤ 6.3 ng/mL

stdin: Could you tell me which sensitivity is on file for CL069707 antibody (antibody, V domains shown, Mouse monoclonal antibody from hybridoma, purified from ascites with Protein A/G; also called #23; No. 23) VH: EVHLVESGGGLVQPKGSLKLSCVASGFTFTTYAMNWVRQAPGKGLEWVARIRIKNNNYATYYADSVTDRFTISRDDSQSMLYLQMNNLKTEDTAMYYCVRPDYGNYGLAYWGQGTLVTVSA VL: EIVLTQSPTTMAASPGEKITITCSASSSISSHYLHWYQQKPGFSPKLLIYRSFYLASGVPLRFTGSGSGTSYSLTIGTMEAEDVATYYCQQDIVPLTFGAGTKLELK ?
stdout: ≤ 1.56 ng/mL

stdin: Could you tell me which sensitivity is on file for CL069463 antibody (antibody, V domains shown, Mouse monoclonal antibody from hybridoma, purified from ascites with Protein A/G; also called #13; No. 13) VH: EVQLVESGGGLVQPKGSLKLSCAASGFTFNTYALTWVRQAPGKGLEWVGRIKSKNKDYETYYADSVKDRFTISRNDSQSLLYLQMNNLKTEDTAIYYCVRQNWNYFDYWGQGTTLTVSS VL: DIQMTQSPASLAASVGETVTITCRASENIYYSLAWYQQRQGKSPQLLIYNANSLKDGVPSRFSGSGSGTQYSMKINSMQPEDTATYFCQQAYDVPPTFGGGTKLEIK ?
stdout: ≤ 3.12 ng/mL
